# experiment-notes: Metabolic stability in mouse liver microsomes assessed as half life measured at 2 to 5 mins
# Type: ADME, Microsome
# experimental-parameters: time 2-5 min
test-readout: half-life (min)

1) O=C(Nc1ncc(-c2ccccc2)o1)c1ccc(F)cc1    5

###

Examples of molecules with documented CC50 follow.
# experiment-notes: Cytotoxicity against human THP-1 cells assessed as cell growth inhibition
# Format: toxicity, cell-based
test-readout: CC50

1. COc1ccc(-c2cnc(NC(=O)c3ccc(C#N)cc3)n2C)cc1    > 100 µM
2. Cn1cc(-c2ccccc2)nc1NC(=O)c1ccc(F)cc1    > 50 µM
3. COc1ccc(-c2cnc(NC(=O)c3ccncc3)n2C)cc1    > 100 µM
4. Cn1c(-c2ccccc2)cnc1NC(=O)c1cccc(Cl)c1    > 50 µM
5. COc1ccc(-c2cnc(NC(=O)C3CCOCC3)n2C)cc1    > 100 µM
6. COc1ccc(-c2cnc(NC(=O)c3ccccc3C)n2C)cc1    > 100 µM
